Study Target: dihydrofolate reductase (DHFR) from Escherichia coli (Escherichia coli, UniProt P0ABQ4)
Procedure Details: biochemical
Assay type: binding
Experimental Setup: Table 5; computed from the thermal shifts obtained; read-out: KD (Approx)
Sorting guide: entries reporting Kd beneath 10 µM go in the y pile, the rest go in the n pile.

>>> label_value("CC(C)=C(c1ccc(Cl)cc1)c1c(N)ncnc1N")
"n"
>>> label_value("C1=Cc2ccccc2Nc2ccccc21")
"y"
>>> label_value("Nc1ccc(NC(=O)c2ccc(C(=O)Nc3ccc(N)cc3)cc2)cc1")
"n"
>>> label_value("O=C(Nc1ccc(C(=O)O)c(O)c1)c1ccccc1")
"n"
>>> label_value("COc1cc(NCc2ccccc2O)c2ncccc2c1")
"n"
>>> label_value("CCOc1ccc(NC(=O)c2cc3ccccc3cc2O)cc1")
"n"
>>> label_value("Nc1ccc(-c2nc3nc(N)nc(N)c3nc2-c2ccc(N)cc2)cc1 [NSC61642, reference compound]")
"y"
>>> label_value("O=C(Nc1ccc(Oc2ccc(NC(=O)Nc3ccc([N+](=O)[O-])cc3)cc2)cc1)Nc1ccc([N+](=O)[O-])cc1")
"y"
>>> label_value("C#CCC(Cc1cnc2nc(N)nc(N)c2n1)c1ccc(C(=O)N[C@@H](CCC(=O)O)C(=O)O)cc1 (stereo partly shown) [NSC754230, pralatrexate, reference compound]")
"y"
>>> label_value("N/C(CC(=O)Nc1cc(C(F)(F)F)ccc1Cl)=N\\O")
"n"

* * *

Study Target: dihydrofolate reductase (DHFR) from Escherichia coli (Escherichia coli, UniProt P0ABQ4)
Procedure Details: biochemical
Assay type: binding
Experimental Setup: Table 5; unit given in Table 4
Label rule met when ΔTm >= 6 °C; otherwise rule not met.

>>> label_value("N/C(CC(=O)Nc1cc(C(F)(F)F)ccc1Cl)=N\\O")
"rule met"
>>> label_value("C1=Cc2ccccc2Nc2ccccc21")
"rule met"
>>> label_value("CC(C)=C(c1ccc(Cl)cc1)c1c(N)ncnc1N")
"rule met"
>>> label_value("O=C(Nc1ccc(C(=O)O)c(O)c1)c1ccccc1")
"rule met"
>>> label_value("CCOc1ccc(NC(=O)c2cc3ccccc3cc2O)cc1")
"rule not met"
>>> label_value("O=C(Nc1ccc(Oc2ccc(NC(=O)Nc3ccc([N+](=O)[O-])cc3)cc2)cc1)Nc1ccc([N+](=O)[O-])cc1")
"rule met"
